System: 327498-153-R-J2-PDC complex spheroid growth, % test/control;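 further: spheroids exposed to compound for 7 days after 3 days of growth; 100% = DMSO vehicle control wells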
Test: Anticancer human tumor 327498-153-R-J2-PDC patient-derived uterine carcinosarcoma cell line growth inhibition [Asc]
Conditions: second compound 1 µM; first compound 0.316 µM; stronger effect = lower value
Parameter viability, T/C: see the listing below.
Observation type: viability, T/C (%)

{"Compound": "C=CC(=O)N1CCN(c2nc(=O)n(-c3c(C)ccnc3C(C)C)c3nc(-c4c(O)cccc4F)c(F)cc23)C(C)C1 (stereo not drawn) + Cc1c(S(C)(=O)=O)c(-c2cc(F)cc(N3CCN(c4ccc(NS(=O)(=O)c5ccc(NC(CCN6CCC(C(=O)OCCCP(=O)(O)O)CC6)CSc6ccccc6)c(S(=O)(=O)C(F)(F)F)c5)cc4)CC3)c2)c(-c2ccc(Cl)cc2)n1C(C)C", "System tested": "327498-153-R-J2-PDC complex spheroid growth, % test/control", "Observation type": "viability, T/C", "Unit label": "%", "Result": 60.7}
{"Compound": "O=C(c1cc(Cc2n[nH]c(=O)c3ccccc23)ccc1F)N1CCN(C(=O)C2CC2)CC1 + CNC(C)C(=O)NC1CN(S(=O)(=O)c2cccc(S(=O)(=O)N3CCC4CCC(C(=O)NC(c5ccccc5)c5ccccc5)N4C(=O)C(NC(=O)C(C)NC)C3)c2)CCC2CCC(C(=O)NC(c3ccccc3)c3ccccc3)N2C1=O", "System tested": "327498-153-R-J2-PDC complex spheroid growth, % test/control", "Observation type": "viability, T/C", "Unit label": "%", "Result": 94.5}
{"Compound": "CNC(C)C(=O)NC1CN(S(=O)(=O)c2cccc(S(=O)(=O)N3CCC4CCC(C(=O)NC(c5ccccc5)c5ccccc5)N4C(=O)C(NC(=O)C(C)NC)C3)c2)CCC2CCC(C(=O)NC(c3ccccc3)c3ccccc3)N2C1=O (stereo not drawn) + Cc1c(S(C)(=O)=O)c(-c2cc(F)cc(N3CCN(c4ccc(NS(=O)(=O)c5ccc(NC(CCN6CCC(C(=O)OCCCP(=O)(O)O)CC6)CSc6ccccc6)c(S(=O)(=O)C(F)(F)F)c5)cc4)CC3)c2)c(-c2ccc(Cl)cc2)n1C(C)C", "System tested": "327498-153-R-J2-PDC complex spheroid growth, % test/control", "Observation type": "viability, T/C", "Unit label": "%", "Result": 82.1}
